- System: CDK5;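 note: KINOMEscan kinase panel screen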
- TEST CONTEXT: concentration: 1 μM, replicates: in singlicate; n = 1
REPORTED METRIC: %Inh (%)
Answers are plain numbers, in %.

Below: 5 molecules and their reported %Inh.
What value of %Inh has been reported for the following molecule? `COc1cccc(NC(=O)NCCNc2ccnc(Nc3ccc(F)cc3)n2)c1`
0

What value of %Inh has been reported for the following molecule? `COC(=O)Nc1nc2ccc(Oc3ccc(CC(=O)Nc4cc(C(F)(F)F)ccc4F)cc3)cc2[nH]1`
0

What value of %Inh has been reported for the following molecule? `Cn1cc(-c2ccc3c(c2)CCN3C(=O)Cc2cc(F)cc(F)c2F)c2c(N)ncnc21`
0

What value of %Inh has been reported for the following molecule? `Cc1ccc(O)cc1Nc1ccnc2cc(-c3ccc(CN4CCCCC4)o3)ccc12`
0

What value of %Inh has been reported for the following molecule? COc1cc(Nc2nccc(N3CCC(NC(=O)Nc4ccc5c(c4)OCO5)C3)n2)cc(OC)c1OC (centres unmarked)
0

Respectfully, I request %Inh for each entry included below.
1. Cc1ccc(Nc2ccnc(Nc3ccc(C)c(F)c3)n2)cc1O.Cl
2. CN1CCN(Cc2ccc(NC(=O)Nc3ccc(N(C)c4ccnc(Nc5ccc(CS(C)(=O)=O)cc5)n4)cc3)cc2)CC1.Cl
3. O=C(Nc1n[nH]c2nc(-c3cccc(O)c3)ccc12)C1CC1
4. Cc1cccc(Nc2nc(N[C@H]3CCCC[C@H]3N)ncc2C(N)=O)c1.Cl
5. Cc1ccccc1CC(=O)N1CCc2cc(-c3cn(C)c4ncnc(N)c34)ccc21
6. Cc1ccc(NC(=O)c2ccc(Cl)c(Cl)c2)cc1-c1ccc(C(=O)Nc2ccncc2)cc1

[0, 58, 0, 5, 0, 0]
